Data provenance is the RepoRT retention time repository.

Record form. Attribute: LC retention time. Fill in for each entry.
Assay Comment: HILIC, Waters ACQUITY UPLC BEH Amide, 100 × 2.1 mm, 1.7 µm; A: water + 0.125% formic acid + 10 mM ammonium formate; B: 5% water + 95% acetonitrile + 0.125% formic acid + 10 mM ammonium formate; gradient (min/%B) 0/100 2/100 7.7/70 9.5/40 10.25/30 12.75/100 17/100
Particulars: stereoisomer not certain
Numbers only, in min.

Consider the reported LC retention time for these compounds:
>  <Compound>
CC(C)=CCNc1ncnc2c1ncn2C1OC(CO)C(O)C1O (centres undefined)

>  <LC retention time, min>
1.48

$$$$
>  <Compound>
COCC1=C(C(=O)OC(C)OC(=O)OC(C)C)N2C(=O)C(NC(=O)C(=NOC)c3csc(N)n3)C2SC1 (centres undefined)

>  <LC retention time, min>
1.12

$$$$
>  <Compound>
Oc1ccc2c3c1OC1C(O)CCC4(O)C(C2)N(CC2CCC2)CCC314 (centres undefined)

>  <LC retention time, min>
5.25

$$$$
>  <Compound>
CN(CC(=O)O)C(=N)N

>  <LC retention time, min>
8.15

$$$$

Please go through the list and note LC retention time for each compound.
1. COc1cc(CNC(=O)CCCCCCC(C)C)ccc1O [Dihydrocapsaicin]
2. O=C(O)CNC(=O)Cc1ccccc1
3. CC1(C)CC1C(=O)NC(=CCCCCSCC(N)C(=O)O)C(=O)O (centres undefined)

1: 1.07; 2: 2.88; 3: 7.63

Dear colleague, could you send me LC retention time for each of the items below? Thanks.
1. CN(C)CCN(Cc1ccccc1)c1ccccn1
2. COC(=O)C(N)Cc1ccc(O)cc1 (centres undefined) [Methyltyrosinate]
3. CC(=O)CCCCn1cnc2c1c(=O)n(C)c(=O)n2C
4. CC(C)C12OC1C1OC13C1(C)CCC4=C(COC4=O)C1CC1OC13C2O (centres undefined) [Triptolide]
5. Cc1ncc(CO)c(CN)c1O
6. COC1C(O)C(CO)OC1n1cnc2c(N)ncnc21 (centres undefined)

1.98
4.23
1.09
1.02
8.1
2.6

Hello, I would appreciate it if you could give LC retention time for each entry below.
1. Nc1ccc(O)c(C(=O)O)c1
2. Cc1cc(O)cc(=O)o1 [4-Hydroxy-6-methyl-2-pyrone]
3. O=C(O)c1c[nH]c2ccccc12
4. O=C1c2c(O)cc(O)cc2OC(c2ccc(O)c(O)c2)C1O (centres undefined)
5. CN1CCCC1C(=O)O (centres undefined)
6. CNC1CC(c2ccc(Cl)c(Cl)c2)c2ccccc21 (centres undefined)

3.89
1.47
1.41
1.78
7.11
2.88

Go through the items and report each one's LC retention time.
1. CC(=O)NC(C)C(=O)O (centres undefined)
2. CN1CCN(c2nc3cc(C(F)(F)F)ccc3n3cccc23)CC1
3. Nc1nc2c(c(=O)[nH]1)N(C=O)C(CNc1ccc(C(=O)NC(CCC(=O)O)C(=O)O)cc1)CN2 (centres undefined)
4. COc1cc(C(=O)NS(=O)(=O)c2ccccc2C)ccc1Cc1cn(C)c2ccc(NC(=O)OC3CCCC3)cc12
5. CCC(C)C(NC(=O)CN)C(=O)O (centres undefined)
6. C=Cc1ccc(O)c(OC)c1
7. CC1CNc2c(cccc2S(=O)(=O)NC(CCCN=C(N)N)C(=O)N2CCC(C)CC2C(=O)O)C1 (centres undefined)

1. 4.83
2. 2.21
3. 7.92
4. 1
5. 7.67
6. 8.71
7. 5.45

====

Assay Comment: HILIC, Waters ACQUITY UPLC BEH Amide, 100 × 2.1 mm, 1.7 µm; A: water + 0.125% formic acid + 10 mM ammonium formate; B: 5% water + 95% acetonitrile + 0.125% formic acid + 10 mM ammonium formate; gradient (min/%B) 0/100 2/100 7.7/70 9.5/40 10.25/30 12.75/100 17/100
Particulars: stereoisomer not certain
Outcome Measure: LC retention time (min)
Answers are plain numbers, in min.

>  <Molecule>
COc1ccc2c(c1)C13CCCCC1C(C2)N(C)CC3 (stereo not drawn)

>  <LC retention time [min]>
2.64

$$$$
>  <Molecule>
CN1CCN(c2c(F)cc3c(=O)c(C(=O)O)cn4c3c2SCC4)CC1

>  <LC retention time [min]>
4.65

$$$$
>  <Molecule>
O=C(O)CC(O)CC(O)C=Cc1c(C2CC2)nc2ccccc2c1-c1ccc(F)cc1 (stereo not drawn)

>  <LC retention time [min]>
1.36

$$$$
>  <Molecule>
CC(CCC(=O)NCCS(=O)(=O)O)C1CCC2C3C(O)CC4CC(O)CCC4(C)C3CC(O)C12C (stereo not drawn)

>  <LC retention time [min]>
6.12

$$$$
>  <Molecule>
C#CCN(C)C(C)Cc1ccccc1 (stereo not drawn)

>  <LC retention time [min]>
1.5

$$$$

Report LC retention time for each item below.
1. CC1OC(OCC2OC(Oc3c(-c4ccc(O)c(O)c4)oc4cc(O)cc(O)c4c3=O)C(O)C(O)C2O)C(O)C(O)C1O (stereo not drawn)
2. CC(=O)NC1C(O)OC(CO)C(O)C1O (stereo not drawn)
3. CCCCN1CCCC1CNC(=O)c1cc(C#N)c2ccccc2c1OC (stereo not drawn) [Nafadotride]

1: 6.6; 2: 7.01; 3: 2.05

====

Assay Comment: HILIC, Waters ACQUITY UPLC BEH Amide, 100 × 2.1 mm, 1.7 µm; A: water + 0.125% formic acid + 10 mM ammonium formate; B: 5% water + 95% acetonitrile + 0.125% formic acid + 10 mM ammonium formate; gradient (min/%B) 0/100 2/100 7.7/70 9.5/40 10.25/30 12.75/100 17/100
Particulars: stereoisomer not certain
Outcome Measure: LC retention time (min)
Answers are plain numbers, in min.

Solved cases (3 shown):
>  <Molecule>
Cc1cn(C2OC(CO)C(O)C2O)c(=O)nc1N (stereo unspecified) [5-Methylcytidine]

>  <Scale Unit>
min

>  <LC retention time>
6.39

$$$$
>  <Molecule>
CCCCCC(O)CC (stereo unspecified) [3-Octanol]

>  <Scale Unit>
min

>  <LC retention time>
8.47

$$$$
>  <Molecule>
CC(NC(=O)C(N)C(C)O)C(=O)O (stereo unspecified) [Thr-Ala]

>  <Scale Unit>
min

>  <LC retention time>
8.56

$$$$

Hey, quick one: what's LC retention time for each of these?
1. Nc1ncnc2nc[nH]c12 [Adenine]
2. CN(C)CC(=O)O [N,N-Dimethylglycine]
3. CC(C)NCC(O)c1ccc(NS(C)(=O)=O)cc1 (stereo unspecified) [Sotalol]
4. CCC(=O)C(CC(C)N(C)C)(c1ccccc1)c1ccccc1 (stereo unspecified) [Methadone]
5. O=C(O)CCP(=O)(O)O [3-Phosphonopropionic acid]
6. CC12CCC(=O)C=C1CCC1C2CCC2(C)C1CCC2(C)O (stereo unspecified) [Methyltestosterone]
7. Cn1c(N)nc2c(ncn2C2OC(CO)C(O)C2O)c1=O (stereo unspecified) [1-Methylguanosine]
8. CC(=O)OCC[C@H](N)C(=O)O [O-Acetyl-L-homoserine]

[4.71, 7.4, 4.87, 2, 8.59, 1.04, 5.84, 7.6]

For each entry beneath this line, provide reported LC retention time.
1. O=C(O)c1cc(=O)c2ccccc2[nH]1 [Kynurenic acid]
2. NC(N)=NOCCC(N)C(=O)O (stereo unspecified) [Canavanine]
3. CN(C)CCOc1ccc(C(=C(CCCl)c2ccccc2)c2ccccc2)cc1 [Toremifene]
4. CC(C)CN [Isobutylamine]

1: 6.15; 2: 9.42; 3: 1.89; 4: 5.04

Report LC retention time for every entry below.
1. Cn1cnc2c(ncn2C2OC(CO)C(O)C2O)c1=N (stereo unspecified) [1-Methyladenosine]
2. CC(=O)N[C@@H](CCC(N)=O)C(=O)O [N-Acetyl-L-glutamine]
3. CCN1CC(CCN2CCOCC2)C(c2ccccc2)(c2ccccc2)C1=O (stereo unspecified) [Doxapram]

[7.46, 8.18, 1.64]

Look at each molecule and report its LC retention time.
1. COc1cc(CNC(=O)CCCCC=CC(C)C)ccc1O [Capsaicin]
2. CC(=O)N1CCN(c2ccc(OCC3COC(Cn4ccnc4)(c4ccc(Cl)cc4Cl)O3)cc2)CC1 (stereo unspecified) [Ketoconazole]
3. C[N+](C)(C)CCCC(=O)O [4-Trimethylammoniobutanoic acid]

1: 1; 2: 1.73; 3: 7.66

====

Assay Comment: HILIC, Waters ACQUITY UPLC BEH Amide, 100 × 2.1 mm, 1.7 µm; A: water + 0.125% formic acid + 10 mM ammonium formate; B: 5% water + 95% acetonitrile + 0.125% formic acid + 10 mM ammonium formate; gradient (min/%B) 0/100 2/100 7.7/70 9.5/40 10.25/30 12.75/100 17/100
Particulars: stereoisomer not certain
Consider the following molecules; for each one, report its LC retention time.
Answers are plain numbers, in min.

Past entries and their recorded results:
>  <Molecule>
COc1cc(-c2oc3cc(O)cc(O)c3c(=O)c2OC2OC(CO)C(O)C(O)C2O)ccc1O (stereo not given) [Isorhamnetin-3-glucoside]

>  <Scale Unit>
min

>  <LC retention time>
4.49

$$$$
>  <Molecule>
CC(=O)OCC(CCn1cnc2cnc(N)nc21)COC(C)=O

>  <Scale Unit>
min

>  <LC retention time>
1.38

$$$$
>  <Molecule>
CC(O)(CS(=O)(=O)c1ccc(F)cc1)C(=O)Nc1ccc(C#N)c(C(F)(F)F)c1 (stereo not given) [Bicalutamide]

>  <Scale Unit>
min

>  <LC retention time>
0.99

$$$$
>  <Molecule>
COC(=O)C1C(OC(=O)c2ccccc2)CC2CCC1N2C (stereo not given)

>  <Scale Unit>
min

>  <LC retention time>
2.2

$$$$

Please turn your attention to the following entry.
Given the molecule CC(C)C(=O)O , what is its reported LC retention time?
1.77
